tested on: P-gp (MDR1); test: in vitro; details: dog, MDCK-MDR1, MDCK AB
Examples of compounds with documented Papp A→B follow.
Experimental Readout: Papp A→B (×10⁻⁶ cm/s)

[[record]]
compound = "C#CCn1c(-c2ccc(Cl)c(Cl)c2)c(-n2nnc3cc(F)c(F)cc32)c(=O)n(-c2cncc3ccccc23)c1=O [AVI-4694]"
unit_label = "×10⁻⁶ cm/s"
readout_value = 8.2

[[record]]
compound = "C#CCn1c(C)c(-n2nnc3cc(F)c(F)cc32)c(=O)n(-c2cncc3ccccc23)c1=O [AVI-4773]"
unit_label = "×10⁻⁶ cm/s"
readout_value = 17.8

[[record]]
compound = "O=c1[nH]c(-c2ccc(Cl)c(Cl)c2)c(-n2nnc3cc(F)c(F)cc32)c(=O)n1-c1cncc2ccccc12 [AVI-4673]"
unit_label = "×10⁻⁶ cm/s"
readout_value = 2.1

[[record]]
compound = "C#CCn1c(C)c(-n2nnc3ccccc32)c(=O)n(-c2cncc3ccccc23)c1=O [AVI-4516]"
unit_label = "×10⁻⁶ cm/s"
readout_value = 13.3

